molecular target: α1D adrenoceptors (Rattus norvegicus, UniProt P23944); construct: the rat thoracic aorta corresponds to a tissue expressing mainly α1D-adrenoceptors; from tissue; host or cells: rat thoracic aorta rings; assay: Phenylephrine-induced contraction inhibition in rat aorta (isometric contraction, Schild KB); assay type: cell-based; settings: log KB ± EPM (M), Table 1; Schild equation; test substance at 50 nM (a), 10 nM (b) or 2 nM (c)
Sequence (P23944 whole entry): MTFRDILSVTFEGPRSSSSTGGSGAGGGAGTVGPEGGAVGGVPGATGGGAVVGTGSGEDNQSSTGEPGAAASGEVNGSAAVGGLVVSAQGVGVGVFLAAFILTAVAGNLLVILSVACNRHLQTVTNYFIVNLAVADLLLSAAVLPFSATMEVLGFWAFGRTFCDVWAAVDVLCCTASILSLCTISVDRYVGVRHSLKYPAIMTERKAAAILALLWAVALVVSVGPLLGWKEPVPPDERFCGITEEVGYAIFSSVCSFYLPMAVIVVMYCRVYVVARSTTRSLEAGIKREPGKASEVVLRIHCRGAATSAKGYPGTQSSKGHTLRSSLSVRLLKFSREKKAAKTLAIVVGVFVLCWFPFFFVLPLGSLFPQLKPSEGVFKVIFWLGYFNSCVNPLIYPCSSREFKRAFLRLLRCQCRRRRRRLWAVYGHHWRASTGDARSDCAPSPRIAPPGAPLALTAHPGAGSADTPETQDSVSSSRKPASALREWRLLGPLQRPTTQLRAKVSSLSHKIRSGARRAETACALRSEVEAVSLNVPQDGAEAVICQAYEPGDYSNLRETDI
Can you tell me Kb for the items I'm about to list?
Provide only the numeric value, understood in M.

// CCOc1ccccc1N1CCN(CCc2ccc3c(c2)OCO3)CC1 [LDT 8] : Kb value = 1.66e-10

Kb measured on COc1ccc(CCN2CCN(c3ccccc3OC)CC2)cc1 [LDT 4] = 3.39e-09

Record COc1ccccc1N1CCN(CCc2ccccc2)CC1 [LDT 2] , field Kb: 3.09e-09

According to the records, this compound COc1ccc(CCN2CCN(c3ccccc3OC)CC2)cc1OC [LDT 5] displays Kb of 5.89e-10

Summary for this compound, CCOc1ccccc1N1CCN(CCc2ccc(OC)c(OC)c2)CC1 [LDT 245] : Kb is 1.17e-09

====

target: α1A adrenoceptors (Oryctolagus cuniculus); construct: from tissue; host or cells: rabbit liver membranes; experiment: Binding of [3H]-prazosin to α1A adrenoceptors (rabbit liver membranes)
Sequence (O02824 whole entry): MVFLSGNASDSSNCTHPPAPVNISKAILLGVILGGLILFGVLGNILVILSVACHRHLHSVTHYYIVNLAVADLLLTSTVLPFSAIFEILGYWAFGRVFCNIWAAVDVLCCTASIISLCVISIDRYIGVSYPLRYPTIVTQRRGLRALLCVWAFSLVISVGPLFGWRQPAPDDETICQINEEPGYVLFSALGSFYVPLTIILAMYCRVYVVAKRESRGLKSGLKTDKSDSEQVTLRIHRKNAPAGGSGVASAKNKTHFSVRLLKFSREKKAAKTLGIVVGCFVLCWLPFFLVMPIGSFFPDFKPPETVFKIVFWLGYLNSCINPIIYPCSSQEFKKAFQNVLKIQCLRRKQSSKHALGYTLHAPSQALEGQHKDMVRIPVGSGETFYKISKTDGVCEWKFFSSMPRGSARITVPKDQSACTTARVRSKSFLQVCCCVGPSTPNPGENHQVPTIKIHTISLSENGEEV
Would you kindly list IC50 for each of these compounds?
Supply the numeric figure in nM, leaving out any unit text.

Input CCCCCN1CCN(c2ccccc2OC)CC1 [LDT 65] . Output IC50: 79.4

The compound identified as COc1ccccc1N1CCN(CCc2ccccc2)CC1 [LDT 2] registered its IC50 at 19.1

For this compound ( COc1cccc(CCN2CCN(c3ccccc3OC)CC2)c1 [LDT 3] ), measured IC50 is 5.62

Summary for this compound, COc1ccc(CCN2CCN(c3ccccc3OC)CC2)cc1 [LDT 4] : IC50 is 10.7

Form field IC50, entry COc1ccc(CCN2CCN(c3ccccc3OC)CC2)cc1OC [LDT 5] : 4.47

Kindly note the recorded IC50 for CCOc1ccccc1N1CCN(CCc2ccc3c(c2)OCO3)CC1 [LDT 8] , which is 4.57

====

biological target: 5-HT1A receptors (Rattus norvegicus); construct: Intrinsic Activity at Native 5-HT1A Receptors; from tissue; host or cells: rat hippocampus membranes; test: Binding of [3H]-8-OH-DPAT to 5-HT1A receptors (rat hippocampus membranes)
Sequence (P19327 whole entry): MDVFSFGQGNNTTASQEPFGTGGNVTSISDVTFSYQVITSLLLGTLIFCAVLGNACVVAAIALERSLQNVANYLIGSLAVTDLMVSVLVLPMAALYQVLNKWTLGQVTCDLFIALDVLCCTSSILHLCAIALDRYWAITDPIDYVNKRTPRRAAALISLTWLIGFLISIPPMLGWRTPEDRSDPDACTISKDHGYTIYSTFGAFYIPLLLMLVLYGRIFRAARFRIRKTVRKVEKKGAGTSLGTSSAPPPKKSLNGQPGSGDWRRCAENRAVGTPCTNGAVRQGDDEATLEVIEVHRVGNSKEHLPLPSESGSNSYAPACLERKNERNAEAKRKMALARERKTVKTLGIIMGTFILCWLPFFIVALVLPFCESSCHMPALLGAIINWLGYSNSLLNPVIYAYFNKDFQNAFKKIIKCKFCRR
measure: pIC50
Reminder that pIC50 is minus the log10 of a molar concentration.

Memo: CCOc1ccccc1N1CCN(CCc2ccc3c(c2)OCO3)CC1 [LDT 8] , reported pIC50: 10.24

# molecule COc1ccc(CCN2CCN(c3ccccc3OC)CC2)cc1OC [LDT 5] ; its pIC50 = 8.21

// CCCCCN1CCN(c2ccccc2OC)CC1 [LDT 65] : pIC50 value = 7.42

// pIC50 value for COc1cccc(CCN2CCN(c3ccccc3OC)CC2)c1 [LDT 3] : 8.56

pIC50 reported for this molecule CCOc1ccccc1N1CCN(CCc2ccc(OC)c(OC)c2)CC1 [LDT 245] : 8.03

COc1ccccc1N1CCN(CCc2ccccc2)CC1 [LDT 2] yielded pIC50 of 8.52

What the record says about COc1ccc(CCN2CCN(c3ccccc3OC)CC2)cc1 [LDT 4] : pIC50 is 8.62

====

test: Acute toxicity test in Swiss mice (body temperature, behaviour for 14 days); format: in vivo; details: body temperature before treatment, n=6
I'd appreciate it if you could supply T (° C.) Basal Measure values for the items below.
Please reply with the bare figure in °C and do not write the unit itself.

Consider COc1ccc(CCN2CCN(c3ccccc3OC)CC2)cc1OC [LDT 5] . Its measured T (° C.) Basal Measure is 35.00

Given item CCOc1ccccc1N1CCN(CCc2ccc3c(c2)OCO3)CC1 [LDT 8] , the value recorded as its T (° C.) Basal Measure is 35.67

// recorded T (° C.) Basal Measure for COc1cccc(CCN2CCN(c3ccccc3OC)CC2)c1 [LDT 3] : 35.33

Item: CCCCCCN1CCN(c2ccccc2OC)CC1 [LDT 66] | T (° C.) Basal Measure: 37.00

The value of T (° C.) Basal Measure measured for the compound CCCCCN1CCN(c2ccccc2OC)CC1 [LDT 65] turned out to be 37.17

====

Exercise: state measured Ki for each of the compounds provided.
target: α2A receptors (Rattus norvegicus); construct: from tissue; host or cells: rat cortex membranes; experiment: Binding of [3H]RX821002 to α2A receptors (rat cortex membranes); conditions: Table 6; Cheng-Prusoff; read-out: Ki
Returns: string containing the numeric result and its unit.

Lookup result for "CCCCCCN1CCN(c2ccccc2OC)CC1" ; measured Ki: 800 nM

Lookup result for "CCCCCCCN1CCN(c2ccccc2OC)CC1" ; measured Ki: 500 nM

Ki reading for "CCCCCCCCN1CCN(c2ccccc2OC)CC1" : 600 nM

====

Biological target: UniProt:P22909
Sequence (P22909 1-465): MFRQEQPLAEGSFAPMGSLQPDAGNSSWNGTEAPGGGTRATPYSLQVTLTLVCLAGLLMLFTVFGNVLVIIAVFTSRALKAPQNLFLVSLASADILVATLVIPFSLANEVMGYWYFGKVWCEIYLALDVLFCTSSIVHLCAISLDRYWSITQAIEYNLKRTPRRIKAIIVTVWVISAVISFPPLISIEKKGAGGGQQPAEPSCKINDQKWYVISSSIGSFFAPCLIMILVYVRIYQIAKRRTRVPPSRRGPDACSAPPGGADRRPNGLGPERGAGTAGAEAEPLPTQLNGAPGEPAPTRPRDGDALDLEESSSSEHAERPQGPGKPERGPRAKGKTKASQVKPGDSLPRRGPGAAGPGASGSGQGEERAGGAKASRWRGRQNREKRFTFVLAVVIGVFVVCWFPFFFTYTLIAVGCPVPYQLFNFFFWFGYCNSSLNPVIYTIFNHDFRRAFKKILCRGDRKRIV
measure: Kd

For this compound ( COC1(C2=NCCN2)COc2ccccc2O1 (stereo not shown) [[3H] RX821002] ), measured Kd is 2.05 nM

====

target: α1B adrenoceptors (Rattus norvegicus); construct: from tissue; host or cells: rat liver membranes; assay: Binding of [3H]-prazosin to α1B adrenoceptors (rat liver membranes)
Sequence (P15823 whole entry): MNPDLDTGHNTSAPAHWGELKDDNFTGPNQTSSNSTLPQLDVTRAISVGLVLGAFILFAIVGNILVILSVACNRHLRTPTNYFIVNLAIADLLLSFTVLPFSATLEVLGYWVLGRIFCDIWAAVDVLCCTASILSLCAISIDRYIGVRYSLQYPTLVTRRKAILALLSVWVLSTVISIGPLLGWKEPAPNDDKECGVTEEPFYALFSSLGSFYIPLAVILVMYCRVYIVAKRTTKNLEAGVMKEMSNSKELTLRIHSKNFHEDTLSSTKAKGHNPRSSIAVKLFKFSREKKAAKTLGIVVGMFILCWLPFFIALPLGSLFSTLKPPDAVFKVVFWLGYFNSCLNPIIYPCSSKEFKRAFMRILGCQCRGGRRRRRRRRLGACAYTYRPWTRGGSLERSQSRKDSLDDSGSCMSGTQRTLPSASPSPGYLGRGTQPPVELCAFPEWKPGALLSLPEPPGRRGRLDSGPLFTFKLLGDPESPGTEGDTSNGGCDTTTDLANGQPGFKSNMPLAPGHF
measure: pKi
// pKi here means minus log10 of the molar concentration (mol/L)

Tested on α1B adrenoceptors (Rattus norvegicus): "COc1ccc(CCN2CCN(c3ccccc3OC)CC2)cc1" . Observed pKi: 7.63

Record "COc1cccc(CCN2CCN(c3ccccc3OC)CC2)c1" has α1B adrenoceptors (Rattus norvegicus) pKi equal to 7.13

pKi on α1B adrenoceptors (Rattus norvegicus) for "CCCCCN1CCN(c2ccccc2OC)CC1" is 6.56

Item "CCOc1ccccc1N1CCN(CCc2ccc3c(c2)OCO3)CC1" was tested on α1B adrenoceptors (Rattus norvegicus); the reported pKi is 8.04

// assay α1B adrenoceptors (Rattus norvegicus), entry "COc1ccccc1N1CCN(CCc2ccccc2)CC1" , pKi value = 7.31

====

target: α1D adrenoceptors (Rattus norvegicus); construct: the rat thoracic aorta corresponds to a tissue expressing mainly α1D-adrenoceptors; from tissue; host or cells: rat thoracic aorta rings; assay: Phenylephrine-induced contraction inhibition in rat aorta (isometric contraction, Schild KB); assay type: cell-based; conditions: KB (nM), Table 1; Schild equation; test substance at 50 nM (a), 10 nM (b) or 2 nM (c)
Please respond with reported log10 of Kb for every item in the list.
In plain terms, each number is the log10 of measured Kb in nM.

Hey, α1D adrenoceptors (Rattus norvegicus) data for "CCOc1ccccc1N1CCN(CCc2ccc3c(c2)OCO3)CC1" : log10 of Kb came out at -0.80

α1D adrenoceptors (Rattus norvegicus) data for "CCOc1ccccc1N1CCN(CCc2ccc(OC)c(OC)c2)CC1" ; its log10 of Kb: 0.06

For "COc1ccc(CCN2CCN(c3ccccc3OC)CC2)cc1OC" on α1D adrenoceptors (Rattus norvegicus), measured log10 of Kb was -0.24

// returns log10 of Kb for "COc1ccc(CCN2CCN(c3ccccc3OC)CC2)cc1" with α1D adrenoceptors (Rattus norvegicus); value = 0.50

Result for "COc1cccc(CCN2CCN(c3ccccc3OC)CC2)c1" , tested on α1D adrenoceptors (Rattus norvegicus), log10 of Kb: 0.25

Considering "COc1ccccc1N1CCN(CCc2ccccc2)CC1" , its log10 of Kb with α1D adrenoceptors (Rattus norvegicus) was recorded as 0.33

====

target: 5-HT2A receptors (Rattus norvegicus, UniProt P14842); construct: from tissue; host or cells: rat cortex membranes; experiment: [3H]-ketanserin binding to 5-HT2A receptors (rat cortex membranes)
Sequence (P14842 whole entry): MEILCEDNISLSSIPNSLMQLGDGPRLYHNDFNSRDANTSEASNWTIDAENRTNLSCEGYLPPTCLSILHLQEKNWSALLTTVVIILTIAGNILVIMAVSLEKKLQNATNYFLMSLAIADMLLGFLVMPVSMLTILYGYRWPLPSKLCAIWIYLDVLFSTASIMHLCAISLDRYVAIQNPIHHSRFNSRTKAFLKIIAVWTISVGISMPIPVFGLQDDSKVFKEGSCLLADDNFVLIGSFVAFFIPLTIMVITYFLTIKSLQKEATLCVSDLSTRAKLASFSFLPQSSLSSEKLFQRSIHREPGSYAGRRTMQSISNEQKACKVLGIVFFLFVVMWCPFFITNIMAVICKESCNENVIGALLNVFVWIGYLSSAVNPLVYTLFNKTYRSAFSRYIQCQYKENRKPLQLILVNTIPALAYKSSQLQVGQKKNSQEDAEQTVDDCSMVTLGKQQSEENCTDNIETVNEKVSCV
measure: IC50 (nM)
Only the number, expressed in nM, is required.

Record "COc1ccc(CCN2CCN(c3ccccc3OC)CC2)cc1" . Reported IC50: 69.2

The compound "COc1ccc(CCN2CCN(c3ccccc3OC)CC2)cc1OC" showed IC50 equal to 389

"COc1ccccc1N1CCN(CCc2ccccc2)CC1" has a reported IC50 of 74.1

// field: IC50; key: "CCCCCN1CCN(c2ccccc2OC)CC1" ; value = 4570

# compound "COc1cccc(CCN2CCN(c3ccccc3OC)CC2)c1" ; its IC50 = 70.8
